Quick reference: GI50 of the listed items.
Tested on: androgen receptor negative prostate (DU145) cell line
Test: Growth of human tumor cells in culture, DU145 (Trypan blue exclusion)
Type: cell-based
Conditions: Homo sapiens, DU-145, 96 h, 96 h continuous treatment, viable cells by Trypan blue exclusion
Procedure: The effect of compounds according to Formula I on the growth of human tumor cells in culture was evaluated using androgen receptor negative prostate (DU145), colo-rectal (DLD-1), non-small cell lung carcinoma (H157), estrogen receptor negative breast (BT20) and chronic myeloid leukemia (K562) cell lines. All cell cultures were maintained at 37° C. in a humidified atmosphere of 5% CO2. […]
Expressed in µM, but write only the number.

Completed entries (count: 4):
COc1ccc(NS(=O)(=O)c2cc3cc(Cl)ccc3oc2=O)cc1 [Example 2] ... 22
COc1ccc2oc(=O)c(S(=O)(=O)Nc3ccc(F)c(N)c3)cc2c1 [Example 6] ... 56
O=c1oc2c(Br)cccc2cc1S(=O)(=O)Nc1ccc(Br)cc1 [Example 10] ... 12
COc1ccc2oc(=O)c(S(=O)(=O)Nc3ccc(Br)cc3)cc2c1 [Example 7] ... 25

What the record says about CCOc1cccc2cc(S(=O)(=O)Nc3ccc(OC)cc3)c(=O)oc12 [Example 8] : GI50 is 52

Per the record, COc1ccc(NS(=O)(=O)c2cc3cc(Cl)ccc3oc2=O)cc1O [Example 4] has GI50 of 42

Value of GI50 reported for the molecule CCOc1cccc2cc(S(=O)(=O)Nc3ccc(F)c(N)c3)c(=O)oc12 [Example 5] is 48

Kindly note the recorded GI50 for O=c1oc2c(Cl)cccc2cc1S(=O)(=O)Nc1ccc(Br)cc1 [Example 9] , which is 14

// recorded GI50 for COc1ccc(NS(=O)(=O)c2cc3cc(Br)ccc3oc2=O)cc1 [Example 1] : 15
